# System: MCF7
# procedure-summary: NCI tumour cell line growth inhibition, 48 h
Activity calls are given as the source filed them. Cut-off read from the data, not from the text of the source: active = GI50 up to about 1.1 µM and inactive = higher.
experimental-readout: GI50

[
  {
    "compound": "CC(=O)OC(OC(C)=O)c1c2ccccc2cc2ccccc12",
    "result": "16.5 µM (inactive)"
  },
  {
    "compound": "CC(C)(C)OC(=O)NC(Cc1ccc([N+](=O)[O-])cc1)C(=O)NC(CCCCNC(=O)OCc1ccccc1)C(=O)ON1C(=O)CCC1=O (configuration not stated)",
    "result": "> 100 µM (inactive)"
  },
  {
    "compound": "CCOC(=O)Oc1ccc2c(c1)c(=O)c1c(NCCN(CC)CC)ccc3nnn2c31",
    "result": "0.392 µM (active)"
  },
  {
    "compound": "Cn1c(=O)n2c(-c3ccccc3)c(-c3ccccc3)n2c1=O",
    "result": "> 100 µM (inactive)"
  },
  {
    "compound": "Nc1nc(SCC(=O)O)nc(O)c1N",
    "result": "> 100 µM (inactive)"
  },
  {
    "compound": "Fc1ccc(Nc2nc(Cl)c3nc[nH]c3n2)cc1Cl",
    "result": "98.9 µM (inactive)"
  },
  {
    "compound": "O=C(CN1c2ccccc2Sc2ccccc21)n1cnc2ccccc21",
    "result": "> 100 µM (inactive)"
  },
  {
    "compound": "CCC1CC(=O)N(SCC(N)C(=O)O)C1=O (configuration not stated)",
    "result": "> 100 µM (inactive)"
  },
  {
    "compound": "COc1cc(Nc2cnc3cc(F)c(F)cc3n2)cc(OC)c1OC",
    "result": "> 100 µM (inactive)"
  },
  {
    "compound": "CCN(CCO)CC1COc2ccccc2O1 (configuration not stated)",
    "result": "> 100 µM (inactive)"
  }
]

Given item CC1CC2=C(C1)C(C1(C)C(=O)CC3C(C1=O)C3(C)C)C(C)C2=O (configuration not stated) , the value recorded as its GI50 is > 100 µM (inactive)

Consider Cc1cc(S(=O)(=O)Nc2nnc3c(Cl)cc(C(F)(F)F)cn23)c(S)cc1Cl . Its measured GI50 is > 61.1 µM (inactive)

GI50 recorded for this compound, C[N+]1(C)C2Cc3ccccc3C1Cc1ccccc12 , is > 100 µM (inactive)

Lab note: measured GI50 of Oc1ccc(/C=N/N=c2\[nH][nH]/c(=N\N=C\c3ccc(O)cc3O)c3ccccc23)c(O)c1 was 0.274 µM (active)

Looking up C/C(=C1/N=C(c2ccccc2)OC1=O)c1ccccc1 , I see its GI50 listed as 82 µM (inactive)

// GI50 value for COc1ccc(OC)c2c(C(C)=O)cccc12 : > 100 µM (inactive)

Record COc1ccc(-c2nc(O)c3ccccc3n2)cc1 . Reported GI50: 35.9 µM (inactive)

====

# System: HCT-116
# procedure-summary: NCI tumour cell line growth inhibition, 48 h
Active and inactive are the calls of the source. Rule as the data show it: active = GI50 up to about 1.1 µM and inactive = higher.
Thanks in advance; please answer with one of these: active, inactive

For orientation, consider the following solved cases.
[
  {
    "compound": "Cc1ccc(NC(=O)SCCC(=O)O)cc1NC(=O)SCCC(=O)O",
    "class": "inactive"
  },
  {
    "compound": "NC(Cc1ccc(CP(=O)(O)O)cc1)C(=O)O (configuration not stated)",
    "class": "inactive"
  },
  {
    "compound": "COc1c2occc2c(N)c2ccc(=O)oc12",
    "class": "inactive"
  },
  {
    "compound": "O=C1CC2(CCNCC2)C(=O)N1N1CCCCC1",
    "class": "inactive"
  },
  {
    "compound": "COc1ccc(Nc2nc3ccc(C(F)(F)F)cc3nc2C(=O)O)cc1OC",
    "class": "inactive"
  }
]

Please let me know the test result on file for CC1CN=C(N(C)C(=O)Nc2ccc(Cl)cc2)S1 (configuration not stated) .
inactive

====

# Tested on: SNB-75
# procedure-summary: NCI tumour cell line growth inhibition, 48 h
The source made the active and inactive calls. Rule as the data show it: active = GI50 up to about 1.1 µM and inactive = higher.
Could you please pick one outcome from this set? active, inactive

Worked set:
[
  {
    "compound": "Cc1ccc(Nc2nc(NNC(=O)Cc3ccccc3)nc(NNC(=O)c3ccncc3)n2)cc1",
    "class": "inactive"
  },
  {
    "compound": "NCCCN(CCCCN(CCCN)C(=O)OCc1ccccc1)C(=O)OCc1ccccc1",
    "class": "inactive"
  },
  {
    "compound": "NC(Cc1ccc(CP(=O)(O)O)cc1)C(=O)O (stereo not given)",
    "class": "inactive"
  },
  {
    "compound": "O[C@]12C=C(c3nccc4c3[nH]c3ccccc34)[C@@H]3CCN(CCCC/C=C\\CC1)C[C@@]31CC3/C=C\\CCCCN3[C@H]12 (stereo not given in full)",
    "class": "active"
  },
  {
    "compound": "COc1cc2c(c(OC)c1OC)-c1ccc(SC)c(=O)cc1[C@@H](NC(=O)c1ccc(C#N)cc1)CC2",
    "class": "active"
  },
  {
    "compound": "CCOC(=O)/C(=C/c1ccc(OC)c(OC)c1)C(=O)c1ccccc1",
    "class": "inactive"
  }
]

Given COc1ccc(/C=C2\CCC(CCN3CCOCC3)C2=O)cc1 (stereo not given) , state the outcome it received in this test.
inactive

Please indicate how the test categorized CCOC(=O)c1ccc(/N=C2\SC(=S)N(c3ccc(F)cc3)\C2=N/c2ccc(C(=O)OCC)cc2)cc1 .
inactive

Dear colleague, could you share the recorded outcome for CC(C)c1cccc(C(C)C)c1NC(=O)C(=O)C1SC(=S)NC1=O (stereo not given) when you have a moment?
inactive

Fill in: this test's call for Brc1ccc(/N=N/N2CCCCC2)cc1 is ___
inactive

====

# System: TK-10
# procedure-summary: NCI tumour cell line growth inhibition, 48 h
Calls of active or inactive are those of the source. Cut-off read from the data, not from the text of the source: active = GI50 up to about 1.1 µM and inactive = higher.
experimental-readout: GI50

[
  {
    "compound": "CC1=C(C(=O)Nc2ccccc2)C2(CCCCC2)C(C#N)=C(SCC(=O)Nc2ccc(Br)cc2)N1",
    "result": "6.58 µM (inactive)"
  }
]

Could you now consider this next compound?
Kindly note: TK-10, O=C1N/C(=N/N=C/C(O)C(O)C(O)CO)N/C1=C\c1ccco1 (centres undefined) , GI50 value reported: > 100 µM (inactive)

====

# Tested on: CAKI-1
# procedure-summary: NCI tumour cell line growth inhibition, 48 h
Active and inactive are the calls of the source. Rule as the data show it: active = GI50 up to about 1.1 µM and inactive = higher.
experimental-readout: GI50

[
  {
    "compound": "CC(=O)NC1=CC(=O)C=C(Cl)C1=O",
    "GI50": "> 100 µM (inactive)"
  },
  {
    "compound": "CCCCC#C[I+]c1ccccc1",
    "GI50": "14 µM (inactive)"
  },
  {
    "compound": "CC(=O)OCC1(CNc2nc(N)ncc2C#N)CC(CCc2ccccc2)C1 (stereo unspecified)",
    "GI50": "4 µM (inactive)"
  },
  {
    "compound": "CCN(CCCOc1ccccc1)CCN(CC)CCCOc1ccccc1",
    "GI50": "16.4 µM (inactive)"
  },
  {
    "compound": "CC(C)(C)OC(=O)N(CCCCNCc1ccc2ccccc2c1)CCCNCc1ccc2ccccc2c1",
    "GI50": "1.17 µM (inactive)"
  }
]

Now turn to the next compound.
Observed GI50 on CAKI-1, entry NC(=S)Nc1nc(=S)[nH]c2c1SC1=N/C(=C\c3ccco3)C(=O)N12 , equals > 82.4 µM (inactive)

====

# Test system: K562
# procedure-summary: NCI tumour cell line growth inhibition, 48 h
Active and inactive are the calls of the source. Rule as the data show it: active = GI50 up to about 1.1 µM and inactive = higher.
Choose the fitting class; nothing outside active, inactive is accepted.

Solved cases below.
[
  {
    "molecule": "CCOC(=O)Oc1ccc2c(c1)c(=O)c1c(NCCN(CC)CC)ccc3nnn2c31",
    "experimental-system": "K562",
    "class": "active"
  },
  {
    "molecule": "COc1ccc(/C=C2\\CCC(CCN3CCOCC3)C2=O)cc1 (stereo not given)",
    "experimental-system": "K562",
    "class": "inactive"
  },
  {
    "molecule": "O=C1CSC(Cc2nc3ccccc3[nH]2)=N1",
    "experimental-system": "K562",
    "class": "inactive"
  }
]

Per the records of this test, what outcome belongs to Nc1nc(SCC(=O)O)nc(O)c1N ?
inactive

For COc1ccc(C(SCCO)(c2ccc(OC)cc2)c2ccc(OC)cc2)cc1 , what call appears in the results of this test?
inactive

Name the outcome recorded for COC(=O)[C@]1(c2cc3ccccc3[nH]2)CC2CN(CC(=O)N(C)OC)C1C1OC(C)(C)OC21 (stereo not given in full) in the assay.
inactive

Check the results log: what was the call for COc1ccc(OC)c(NCC#N)c1 ?
inactive

What classification did COC(=O)[C@H](C)NC(=O)C1(CNC(=O)[C@H](C)NC(=O)OC(C)(C)C)Cc2ccccc2-c2ccccc2C1 end up with in this test?
inactive

Please state the recorded outcome for this molecule: CC(=O)OCC1=C(CCC#N)N2C(=O)C(NC(=O)Cc3cccs3)C2[S+]([O-])C1 (stereo not given)
inactive

Please share the test call associated with NCCCN(CCCCN(CCCN)C(=O)OCc1ccccc1)C(=O)OCc1ccccc1 .
inactive

Please share the test call associated with N#CC(OC1OC(COC2OC(CO)C(O)C(O)C2O)C(O)C(O)C1O)c1ccccc1 (stereo not given) .
inactive

Assay outcome for C=C1CCCC2OC(OC)CCC12 (stereo not given) : what was it?
inactive

What call does the record list for O=C(O)c1c(CC(Cc2ccc3c(c2)CCC3)C(=O)O)ccc2c1CCC2 (stereo not given) ?
inactive

// return assay outcome for C[NH+]1[C@@H](Cc2ccccc2)C(=O)O[B-]1(F)c1ccccc1 (stereo not given in full)
inactive

Returns: the outcome recorded for CCN(CCCOc1ccccc1)CCN(CC)CCCOc1ccccc1 in this assay.
inactive

Please share the test call associated with COc1cc(CC(C)NC(C)=O)cc(OC)c1 (stereo not given) .
inactive

Hi, sorry to bother you, what did the test record for Cc1ccc(NC(=O)SCCC(=O)O)cc1NC(=O)SCCC(=O)O ?
inactive

How did this test come out for CCCCCCCC/C=C1\CCC(CN2CCOCC2)C1=O (stereo not given) ?
inactive

Dear colleague, could you share the recorded outcome for CC(C)=CC[S+]([O-])c1ccccc1NC1=CC(=O)CC(C)(C)C1 (stereo not given) when you have a moment?
inactive

Answer briefly: the call reported for O=P1(Cc2ccccc2)N(Cc2ccccc2)[C@@H]2CCCC[C@H]2N1Cc1ccccc1 in this assay.
inactive

Called result for Cc1cc(C)c(N[S+]([O-])c2cccc(C(F)(F)F)c2)c(C)c1 (stereo not given)
inactive

What call does the record list for Cc1cc(NS(=O)(=O)c2ccc(NC(=O)c3cccc4cc5ccccc5nc34)cc2)no1 ?
inactive

Where these numbers come from: ChEMBL document CHEMBL1201862
